// data source = the supplement of paper PMC3545927

biological target: furin, P09958; assay: furin cleavage Z-score vs untreated control; higher = more cleavage, active = 3.5 or more, inactive = 1 or less, 8 variable residues between constant flanks; conditions: 15 min;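 note: purified furin at 1:10 enzyme:substrate in 50 mM HEPES pH 7.5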
Sequence (P09958 whole entry): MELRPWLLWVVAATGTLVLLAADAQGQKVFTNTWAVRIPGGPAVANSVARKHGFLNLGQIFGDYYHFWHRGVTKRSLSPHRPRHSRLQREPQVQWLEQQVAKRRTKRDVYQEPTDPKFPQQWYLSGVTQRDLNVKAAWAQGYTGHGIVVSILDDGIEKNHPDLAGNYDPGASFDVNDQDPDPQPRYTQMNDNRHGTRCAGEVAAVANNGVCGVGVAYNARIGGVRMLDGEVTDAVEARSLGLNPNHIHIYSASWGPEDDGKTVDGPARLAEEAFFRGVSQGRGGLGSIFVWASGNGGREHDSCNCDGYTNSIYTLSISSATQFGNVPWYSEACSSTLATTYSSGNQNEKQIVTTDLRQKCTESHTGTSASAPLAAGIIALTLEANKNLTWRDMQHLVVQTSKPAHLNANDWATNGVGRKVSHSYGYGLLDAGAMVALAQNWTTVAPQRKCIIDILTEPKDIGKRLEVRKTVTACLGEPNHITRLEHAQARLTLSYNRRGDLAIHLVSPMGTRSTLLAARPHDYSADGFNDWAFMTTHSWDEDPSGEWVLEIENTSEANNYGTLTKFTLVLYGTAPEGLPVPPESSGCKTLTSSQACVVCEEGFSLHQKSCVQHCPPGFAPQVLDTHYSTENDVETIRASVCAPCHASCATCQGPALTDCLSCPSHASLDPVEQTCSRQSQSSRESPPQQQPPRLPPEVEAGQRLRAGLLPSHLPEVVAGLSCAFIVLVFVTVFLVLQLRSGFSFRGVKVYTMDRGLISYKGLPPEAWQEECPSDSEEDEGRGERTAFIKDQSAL
Some of the results follow. No count for the full screen is at hand.
What furin cleavage Z-score was measured for each of the following?
Give the figure only, with no unit attached.

Exam item: Answer with reported furin cleavage Z-score of CARACRGVTTAGNASASA [FS-2880]
Marked response: -0.299

Exam item: Report furin cleavage Z-score for CARRRRYKKKAGNASASA [FS-2182]
Marked response: -0.187

Exam item: Identify measured furin cleavage Z-score associated with CAENLETTMRAGNASASA [HC760]
Marked response: 0.35

Exam item: Fill in reported furin cleavage Z-score for this entry: CARRRRLRTAAGNASASA [FS-1786]
Marked response: 3.9

Exam item: Input CATQTVDFSLAGNASASA [HC890] , output reported furin cleavage Z-score.
Marked response: 0.088

Exam item: Please give measured furin cleavage Z-score of the following entry: CARTPCSGSWAGNASASA [HC1833]
Marked response: -0.942
